The entries below come with measured IC50 values attached.
- test.system: VEGFR2, unphosphorylated (Homo sapiens (Human))
- Sequence (P35968 whole entry, looked up): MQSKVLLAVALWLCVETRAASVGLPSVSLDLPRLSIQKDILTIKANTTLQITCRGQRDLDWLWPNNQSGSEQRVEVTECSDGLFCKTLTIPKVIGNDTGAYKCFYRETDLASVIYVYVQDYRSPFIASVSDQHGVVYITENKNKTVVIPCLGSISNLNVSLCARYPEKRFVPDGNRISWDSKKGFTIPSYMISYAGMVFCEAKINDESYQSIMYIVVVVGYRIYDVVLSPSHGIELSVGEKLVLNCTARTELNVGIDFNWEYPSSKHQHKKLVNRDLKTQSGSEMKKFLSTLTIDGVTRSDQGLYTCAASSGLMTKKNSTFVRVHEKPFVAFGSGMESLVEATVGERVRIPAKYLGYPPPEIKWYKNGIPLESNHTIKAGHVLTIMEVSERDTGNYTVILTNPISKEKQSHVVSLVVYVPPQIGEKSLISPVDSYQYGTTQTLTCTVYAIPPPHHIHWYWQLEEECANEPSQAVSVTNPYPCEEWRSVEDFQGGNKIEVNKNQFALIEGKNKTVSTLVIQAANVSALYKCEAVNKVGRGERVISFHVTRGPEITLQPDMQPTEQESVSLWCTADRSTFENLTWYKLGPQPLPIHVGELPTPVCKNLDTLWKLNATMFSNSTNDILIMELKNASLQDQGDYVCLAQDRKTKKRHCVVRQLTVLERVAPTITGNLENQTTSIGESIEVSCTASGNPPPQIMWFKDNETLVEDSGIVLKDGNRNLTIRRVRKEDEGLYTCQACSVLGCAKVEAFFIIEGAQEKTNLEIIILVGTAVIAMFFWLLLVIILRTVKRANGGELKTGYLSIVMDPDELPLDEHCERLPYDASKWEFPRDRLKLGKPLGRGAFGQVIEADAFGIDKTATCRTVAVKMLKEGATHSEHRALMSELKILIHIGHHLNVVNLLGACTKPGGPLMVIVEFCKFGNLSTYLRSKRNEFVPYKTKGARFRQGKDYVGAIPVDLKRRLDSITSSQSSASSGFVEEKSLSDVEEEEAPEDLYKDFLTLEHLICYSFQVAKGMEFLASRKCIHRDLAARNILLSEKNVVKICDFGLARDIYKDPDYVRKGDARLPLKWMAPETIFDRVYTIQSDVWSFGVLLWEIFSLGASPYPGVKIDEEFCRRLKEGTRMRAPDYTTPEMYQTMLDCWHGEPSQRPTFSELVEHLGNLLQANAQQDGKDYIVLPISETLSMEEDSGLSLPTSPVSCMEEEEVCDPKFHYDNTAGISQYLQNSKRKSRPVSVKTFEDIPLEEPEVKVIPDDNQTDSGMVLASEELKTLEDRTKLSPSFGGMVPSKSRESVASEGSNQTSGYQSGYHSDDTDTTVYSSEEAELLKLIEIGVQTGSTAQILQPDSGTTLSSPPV
- assay: VEGFR ADP GLO assay
- experimental.parameters: 5 nM VEGFR2, 1.2 mM ATP, 1 mg/mL Srctide, 180 min
- Procedure: Assay buffer stock contains 50 mM HEPES pH7.5, 10 mM MgCl2, 0.01% Brij-35, and 1 mM EGTA. Unphosphorylated VEGFR2. 52.6 μM in 50 mM Tris-HCl, pH 8.0, 50 mM NaCl, 5% Glycerol, 0.5 mM TCEP. Store at −80° C. in aliquots. 10 mg/mL srctide solution, prepared in Assay buffer (Assay buffer stock with 2 mM DTT, 0.1% Pluronic F-127, and 0.1 mg/mL ovalbumin). […] Step 5. […] Centrifuge at 1000 rpm for 1 min; Incubate at room temperature for 1 hour; Read Luminescence on a plate reader. […]
I only need the number, in nM, no unit after it.

# compound.structure, test.system, IC50 [nM]
measured = [
    ("COCCn1cc(Nc2ncc3c(Nc4cc(C(=O)NCCN5CCCC56CCC6)cnc4C)nn(C)c3n2)cn1", "VEGFR2, unphosphorylated (Homo sapiens (Human))", 2670),
]

Let's switch to this molecule now.
Can you look up the measured IC50 of "Cc1ncc(C(=O)NCCN2CCCCC23CC3)cc1Nc1nn(C)c2nc(Nc3cnn(C)c3)ncc12" for me?
1550

###

- test.system: Tb-labeled inactive PDGFRβ (Homo sapiens (Human), UniProt P09619)
- Sequence (P09619 whole entry, looked up): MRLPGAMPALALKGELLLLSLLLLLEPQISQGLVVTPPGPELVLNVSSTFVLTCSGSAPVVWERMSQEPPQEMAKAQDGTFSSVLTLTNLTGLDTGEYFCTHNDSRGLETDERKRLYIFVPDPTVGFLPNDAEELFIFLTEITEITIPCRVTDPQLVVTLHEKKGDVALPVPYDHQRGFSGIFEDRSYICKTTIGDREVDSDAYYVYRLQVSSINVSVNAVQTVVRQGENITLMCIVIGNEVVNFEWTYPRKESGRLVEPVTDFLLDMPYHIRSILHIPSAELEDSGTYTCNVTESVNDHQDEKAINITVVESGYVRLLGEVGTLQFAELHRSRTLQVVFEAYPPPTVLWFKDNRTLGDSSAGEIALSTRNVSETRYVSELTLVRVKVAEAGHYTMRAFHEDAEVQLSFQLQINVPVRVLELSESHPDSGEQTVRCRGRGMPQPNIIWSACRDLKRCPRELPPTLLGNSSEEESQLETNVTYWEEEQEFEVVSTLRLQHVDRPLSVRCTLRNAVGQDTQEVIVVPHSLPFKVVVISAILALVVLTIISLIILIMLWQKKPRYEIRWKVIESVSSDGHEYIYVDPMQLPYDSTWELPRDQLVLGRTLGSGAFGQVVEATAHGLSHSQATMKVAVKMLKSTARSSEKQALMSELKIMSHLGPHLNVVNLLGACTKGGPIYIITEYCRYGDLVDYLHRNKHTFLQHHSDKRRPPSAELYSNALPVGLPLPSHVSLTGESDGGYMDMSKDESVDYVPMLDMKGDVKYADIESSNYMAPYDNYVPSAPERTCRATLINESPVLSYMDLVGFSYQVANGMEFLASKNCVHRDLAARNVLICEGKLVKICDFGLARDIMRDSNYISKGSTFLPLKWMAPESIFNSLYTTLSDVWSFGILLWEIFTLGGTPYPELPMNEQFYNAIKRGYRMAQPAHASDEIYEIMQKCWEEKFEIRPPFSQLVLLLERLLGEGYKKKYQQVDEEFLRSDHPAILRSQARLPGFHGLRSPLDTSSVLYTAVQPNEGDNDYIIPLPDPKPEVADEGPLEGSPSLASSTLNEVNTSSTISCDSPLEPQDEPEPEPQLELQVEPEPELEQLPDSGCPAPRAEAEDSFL
- assay: biochemical
- Assay type: binding
- experimental.parameters: read-out: PDGFR Lantha IC50
Response field label: string, one of y (IC50 strictly below 3 nM) or n.

Solved cases (5 shown):
# compound.structure, test.system, group.label
measured = [
    ("Cc1ncc(NC(=O)NCCN2CCCC2(C)C)cc1Nc1nn(C)c2nc(Nc3cncnc3)ncc12", "Tb-labeled inactive PDGFRβ (Homo sapiens (Human), UniProt P09619)", "n"),
    ("Cc1ncc(C(=O)NCCN2CCCC2(C)C)cc1Nc1nn(C)c2nc(Nc3cnn(C)n3)ncc12", "Tb-labeled inactive PDGFRβ (Homo sapiens (Human), UniProt P09619)", "n"),
    ("Cc1ncc(NC(=O)CN(CCF)C2CCCC2)cc1Nc1nn(C)c2nc(Nc3cnn(C)c3)ncc12", "Tb-labeled inactive PDGFRβ (Homo sapiens (Human), UniProt P09619)", "y"),
    ("CC[C@@H]1CN(CCNC(=O)c2cnc(C)c(Nc3nn(C)c4nc(Nc5ccnc(N6CCC(CCO)CC6)c5)ncc34)c2)CCO1", "Tb-labeled inactive PDGFRβ (Homo sapiens (Human), UniProt P09619)", "n"),
    ("Cc1cc(C(=O)NCCN2CCC[C@@H]2C)sc1Nc1nn(C)c2nc(Nc3cnn(C)c3)ncc12", "Tb-labeled inactive PDGFRβ (Homo sapiens (Human), UniProt P09619)", "n"),
]

I wonder whether "COCCn1cc(Nc2ncc3c(Nc4cc(C(=O)NCCN5CCCC5(C)C)cnc4C)nn(C)c3n2)cn1" has IC50 below 3 nM. Can you tell?
n

And the next one, "Cc1nn(C)cc1Nc1ncc2c(Nc3cc(C(=O)NCCN4CCC[C@@H]4C)cnc3C)nn(C)c2n1" ?
n

Likewise for "COCCn1cc(Nc2ncc3c(Nc4cc(NC(=O)CN5CC(C)(C)C5)cnc4C)nn(C)c3n2)cn1" ?
y

"Cc1ncc(C(=O)NCCN2CC3CCC2CC3)cc1Nc1nn(C)c2nc(Nc3cncnc3)ncc12" ?
n

And what about the molecule "Cc1ncc(C(=O)NCCN2CCCC2(C)C)cc1Nc1nn(C)c2nc(Nc3ccnc(N4CCOCC4)c3)ncc12" ?
y

How about this molecule: "Cc1ncc(C(=O)NCCC2CCCCC2)cc1Nc1nn(C)c2nc(Nc3ccc(CC#N)nc3)ncc12"
y

Entry "CC(=O)Nc1cc(Nc2ncc3c(Nc4cc(C(=O)NCCN5CCCC5(C)C)cnc4C)nn(C)c3n2)ccn1" please
y

Now the same for "Cc1ncc(C(=O)NCCN2CCCC2(C)C)cc1Nc1nn(C)c2nc(Nc3cccc(CC(=O)O)c3)ncc12"
n

Moving on to "Cc1ncc(C(=O)NCCN2CCC[C@@H]2C)cc1Nc1nn(C)c2nc(Nc3cncnc3)ncc12"
n

Also "Cc1ncc(C(=O)NCCN(C)C2CCCC2)cc1Nc1nn(C)c2nc(Nc3cncnc3)ncc12" , if possible.
n

Reference for the values: patent US20240360134A1
